Here, each record is paired with measured viability, T/C data.
# Tested on: PANC-1 complex spheroid growth, percent test/control
# test-description: Anticancer human tumor PANC-1 cell line growth inhibition [Asc];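 further: spheroids exposed to agents for 7 days; percent viability relative to DMSO vehicle wells taken as 100%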
# applied-conditions: second compound 0.0316 µM; first compound 10 µM; active compounds read low
value-kind: viability, T/C

molecule	result
C=CC(=O)N1CCN(c2nc(=O)n(-c3c(C)ccnc3C(C)C)c3nc(-c4c(O)cccc4F)c(F)cc23)C(C)C1 (stereo not drawn) + Cc1c(S(C)(=O)=O)c(-c2cc(F)cc(N3CCN(c4ccc(NS(=O)(=O)c5ccc(NC(CCN6CCC(C(=O)OCCCP(=O)(O)O)CC6)CSc6ccccc6)c(S(=O)(=O)C(F)(F)F)c5)cc4)CC3)c2)c(-c2ccc(Cl)cc2)n1C(C)C	88.2%
O=C(c1cc(Cc2n[nH]c(=O)c3ccccc23)ccc1F)N1CCN(C(=O)C2CC2)CC1 + Cc1c(S(C)(=O)=O)c(-c2cc(F)cc(N3CCN(c4ccc(NS(=O)(=O)c5ccc(NC(CCN6CCC(C(=O)OCCCP(=O)(O)O)CC6)CSc6ccccc6)c(S(=O)(=O)C(F)(F)F)c5)cc4)CC3)c2)c(-c2ccc(Cl)cc2)n1C(C)C	93.7%
C#Cc1c(F)ccc2cc(O)cc(-c3ncc4c(N5CC6CCC(C5)N6)nc(OCC56CCCN5CC(F)C6)nc4c3F)c12 (stereo not drawn) + Cc1c(S(C)(=O)=O)c(-c2cc(F)cc(N3CCN(c4ccc(NS(=O)(=O)c5ccc(NC(CCN6CCC(C(=O)OCCCP(=O)(O)O)CC6)CSc6ccccc6)c(S(=O)(=O)C(F)(F)F)c5)cc4)CC3)c2)c(-c2ccc(Cl)cc2)n1C(C)C	72.6%
